List of tissue uptake at 1 h values.
- assay-name: in vivo
- Parameters: species or system mice
- cond: male, NOD.Cg-Rag1tm1Mom Il2rgtm1Wjl/SzJ (NRG), mouse, iv, total radioactivity, Biodistribution: Testes
Where a SMILES comes first, the peptide text is derived from it. Bridges are numbered along the chain shown (N, C = ends). Side-chain parts run from the residue outwards. [ ]: non-standard residue; d: D form. The star is where a group is joined. X3 = O=C(O)CN1CCN(CC(=O)O)CCN(CC(=O)N[C@@H](CS(=O)(=O)O)C(=O)N[C@@H](CCCCNC(=O)CCCc2ccc(Br)cc2)C(=O)*)CCN(CC(=O)O)CC1; X5 = O=C(O)CN1CCN(CC(=O)O)CCN(CC(=O)N[C@@H](CS(=O)(=O)O)C(=O)N[C@@H](CCCCNC(=O)CCCc2ccc(Cl)cc2)C(=O)*)CCN(CC(=O)O)CC1; X1 = O=C(O)CN1CCN(CC(=O)O)CCN(CC(=O)N[C@@H](CS(=O)(=O)O)C(=O)N[C@@H](CCCCNC(=O)CCCc2ccc(I)cc2)C(=O)*)CCN(CC(=O)O)CC1; X6 = COc1ccc(CCCC(=O)NCCCC[C@H](NC(=O)[C@H](CS(=O)(=O)O)NC(=O)CN2CCN(CC(=O)O)CCN(CC(=O)O)CCN(CC(=O)O)CC2)C(=O)*)cc1; X7 = COc1ccc(CCCC(=O)NCCCC[C@H](NC(=O)CN2CCN(CC(=O)O)CCN(CC(=O)O)CCN(CC(=O)O)CC2)C(=O)*)cc1; DOTA = O=C(O)CN1CCN(CC(=O)O)CCN(CC(=O)*)CCN(CC(=O)O)CC1; NMeLys(iPr) = CN[C@@H](CCCCNC(C)C)C(=O)O; 2Nal = N[C@@H](Cc1ccc2ccccc2c1)C(=O)O; Lys(iPr) = CC(C)NCCCC[C@H](N)C(=O)O; Cya = N[C@@H](CS(=O)(=O)O)C(=O)O
Entry rule: numbers only, all in %ID/g.

[[record]]
compound = "CC(C)NCCCC[C@H](NC(=O)[C@H]1CCC(=O)N[C@@H](CCCCNC(=O)[C@H](CCCCNC(=O)CCCc2ccc(Br)cc2)NC(=O)[C@H](CS(=O)(=O)O)NC(=O)CN2CCN(CC(=O)O)CCN(CC(=O)O)CCN(CC(=O)O)CC2)C(=O)N[C@@H](Cc2ccc(O)cc2)C(=O)N[C@@H](CCCCNC(C)C)C(=O)N[C@H](CCCNC(=N)N)C(=O)N[C@@H](Cc2ccc3ccccc3c2)C(=O)N[C@H](C)C(=O)N1)C(N)=O [[^177Lu]Lu-BL34L20, metal not drawn] (K(X3)Y[Lys(iPr)][dR][2Nal][dA][dE][Lys(iPr)]-NH2; lactam N-7)"
quantity_unit = "%ID/g"
value_reported = 1.78

[[record]]
compound = "COc1ccc(CCCC(=O)NCCCC[C@H](NC(=O)CN2CCN(CC(=O)O)CCN(CC(=O)O)CCN(CC(=O)O)CC2)C(=O)N[C@@H](CS(=O)(=O)O)C(=O)NCCCC[C@@H]2NC(=O)CC[C@H](C(=O)N[C@@H](CCCCNC(C)C)C(N)=O)NC(=O)[C@@H](C)NC(=O)[C@H](Cc3ccc4ccccc4c3)NC(=O)[C@@H](CCCNC(=N)N)NC(=O)[C@H](CCCCNC(C)C)NC(=O)[C@H](Cc3ccc(O)cc3)NC2=O)cc1 [[68Ga]Ga-BL34L6, metal not drawn] (K([Cya-X7])Y[Lys(iPr)][dR][2Nal][dA][dE][Lys(iPr)]-NH2; lactam N-7)"
quantity_unit = "%ID/g"
value_reported = 0.26

[[record]]
compound = "CC(C)NCCCC[C@H](NC(=O)[C@H]1CCC(=O)N[C@@H](CCCCNC(=O)[C@H](CCCCNC(=O)CCCc2ccc(Cl)cc2)NC(=O)[C@H](CS(=O)(=O)O)NC(=O)CN2CCN(CC(=O)O)CCN(CC(=O)O)CCN(CC(=O)O)CC2)C(=O)N[C@@H](Cc2ccc(O)cc2)C(=O)N[C@@H](CCCCNC(C)C)C(=O)N[C@H](CCCNC(=N)N)C(=O)N[C@@H](Cc2ccc3ccccc3c2)C(=O)N[C@H](C)C(=O)N1)C(N)=O [[^68Ga]Ga-BL34L16, metal not drawn] (K(X5)Y[Lys(iPr)][dR][2Nal][dA][dE][Lys(iPr)]-NH2; lactam N-7)"
quantity_unit = "%ID/g"
value_reported = 1.16


Annotate the compound CC(C)NCCCC[C@H](NC(=O)[C@H]1CCC(=O)N[C@@H](CCCCNC(=O)[C@H](CS(=O)(=O)O)NC(=O)CN2CCN(CC(=O)O)CCN(CC(=O)O)CCN(CC(=O)O)CC2)C(=O)N[C@@H](Cc2ccc(O)cc2)C(=O)N(C)[C@@H](CCCCNC(C)C)C(=O)N[C@H](CCCNC(=N)N)C(=O)N[C@@H](Cc2ccc3ccccc3c2)C(=O)N[C@H](C)C(=O)N1)C(N)=O [[^68Ga]Ga-BL34N1, metal not drawn] (K([Cya-DOTA])Y[NMeLys(iPr)][dR][2Nal][dA][dE][Lys(iPr)]-NH2; lactam N-7) with its measured tissue uptake at 1 h.
0.18

Annotate the compound CC(C)NCCCC[C@H](NC(=O)[C@H]1CCC(=O)N[C@@H](CCCCNC(=O)[C@H](CCCCNC(=O)CCCc2ccc(I)cc2)NC(=O)[C@H](CS(=O)(=O)O)NC(=O)CN2CCN(CC(=O)O)CCN(CC(=O)O)CCN(CC(=O)O)CC2)C(=O)N[C@@H](Cc2ccc(O)cc2)C(=O)N[C@@H](CCCCNC(C)C)C(=O)N[C@H](CCCNC(=N)N)C(=O)N[C@@H](Cc2ccc3ccccc3c2)C(=O)N[C@H](C)C(=O)N1)C(N)=O [[^68Ga]Ga-BL34L11, metal not drawn] (K(X1)Y[Lys(iPr)][dR][2Nal][dA][dE][Lys(iPr)]-NH2; lactam N-7) with its measured tissue uptake at 1 h.
2.14

Annotate the compound COc1ccc(CCCC(=O)NCCCC[C@H](NC(=O)[C@H](CS(=O)(=O)O)NC(=O)CN2CCN(CC(=O)O)CCN(CC(=O)O)CCN(CC(=O)O)CC2)C(=O)NCCCC[C@@H]2NC(=O)CC[C@H](C(=O)N[C@@H](CCCCNC(C)C)C(N)=O)NC(=O)[C@@H](C)NC(=O)[C@H](Cc3ccc4ccccc4c3)NC(=O)[C@@H](CCCNC(=N)N)NC(=O)[C@H](CCCCNC(C)C)NC(=O)[C@H](Cc3ccc(O)cc3)NC2=O)cc1 [[^68Ga]Ga-BL34L7, metal not drawn] (K(X6)Y[Lys(iPr)][dR][2Nal][dA][dE][Lys(iPr)]-NH2; lactam N-7) with its measured tissue uptake at 1 h.
0.44

###

List of tissue uptake at 1 h values.
- assay-name: in vivo
- Parameters: species or system mice
- cond: male, NOD.Cg-Rag1tm1Mom Il2rgtm1Wjl/SzJ (NRG), mouse, iv, total radioactivity, Biodistribution: Adrenals
Where a SMILES comes first, the peptide text is derived from it. Bridges are numbered along the chain shown (N, C = ends). [ ]: non-standard residue; d: D form. The star is where a group is joined. X5 = O=C(O)CN1CCN(CC(=O)O)CCN(CC(=O)N[C@@H](CS(=O)(=O)O)C(=O)N[C@@H](CCCCNC(=O)CCCc2ccc(Cl)cc2)C(=O)*)CCN(CC(=O)O)CC1; 2Nal = N[C@@H](Cc1ccc2ccccc2c1)C(=O)O; Lys(iPr) = CC(C)NCCCC[C@H](N)C(=O)O
Entry rule: numbers only, all in %ID/g.

[[record]]
compound = "CC(C)NCCCC[C@H](NC(=O)[C@H]1CCC(=O)N[C@@H](CCCCNC(=O)[C@H](CCCCNC(=O)CCCc2ccc(Cl)cc2)NC(=O)[C@H](CS(=O)(=O)O)NC(=O)CN2CCN(CC(=O)O)CCN(CC(=O)O)CCN(CC(=O)O)CC2)C(=O)N[C@@H](Cc2ccc(O)cc2)C(=O)N[C@@H](CCCCNC(C)C)C(=O)N[C@H](CCCNC(=N)N)C(=O)N[C@@H](Cc2ccc3ccccc3c2)C(=O)N[C@H](C)C(=O)N1)C(N)=O [[^68Ga]Ga-BL34L16, metal not drawn] (K(X5)Y[Lys(iPr)][dR][2Nal][dA][dE][Lys(iPr)]-NH2; lactam N-7)"
value_reported = 1.63


API: the following record is the query input.
Annotate the compound CC(C)NCCCC[C@H](NC(=O)[C@@H]1CCSc2c3cccc([N+](=O)[O-])c3cn2[C@@H](CCCCNC(=O)[C@H](CS(=O)(=O)O)NC(=O)CN2CCN(CC(=O)O)CCN(CC(=O)O)CCN(CC(=O)O)CC2)C(=O)CC(Cc2ccc(O)cc2)C(=O)N[C@@H](CCCCNC(C)C)C(=O)N[C@H](CCCNC(=N)N)C(=O)N[C@@H](Cc2ccc3ccccc3c2)C(=O)N[C@H](C)C(=O)N1)C(N)=O (some centres unmarked) [[^68Ga]Ga-3NOPA-BL34L2, metal not drawn] with its measured tissue uptake at 1 h.
0.7
